Test system: RAW264.7
Assay: Antiinflammatory activity in mouse RAW264.7 cells assessed as inhibition of LPS-induced up-regulation of pro-inflammatory protein iNOS by Western blot analysis
Assay type: functional
Settings: read-out: ED50 (the source's name)
reported.metric: pEC50
# log scale: pEC50 equals minus log10 of the concentration in mol/L

Lookup: Using the record for C[C@@H]1[C@@H]2O[C@H]3CC[C@@]4(C=CC[C@H](C)[C@@]4(C)[C@H]13)O2 [FLAVALIN A] , report its pEC50.
Found: 4.69

----------
Tested on: RAW264.7
Experiment: Antiinflammatory activity in mouse RAW264.7 cells assessed as inhibition of LPS-induced up-regulation of pro-inflammatory protein COX-2 by Western blot analysis
Type: functional
Settings: read-out: ED50 (the source's name)
reported.metric: EC50 (µM)
// return numeric value only (unit: µM, not printed)

Lookup: // lookup EC50 for C[C@@H]1[C@@H]2O[C@H]3CC[C@@]4(C=CC[C@H](C)[C@@]4(C)[C@H]13)O2 [FLAVALIN A]
Found: 26.5
